Provenance of the data: ChEMBL document CHEMBL3286145

- Experiment description: Ex vivo antiprion activity against sheep 127S scrapie prion protein infected in mouse MovS6 cells assessed as PK digestion resistant-PrPSc accumulation after 6 days by immunoblot analysis
- Format: cell-based
- Measurement context: Ovis aries, MovS6, 144 h
Measured endpoint: IC50 (µM)
Give your result in µM as a bare value.

> print(dat)
           smiles.structure  reading.unit  experimental.value
1  Nc1nc2ccccc2c2cc(F)ccc12            µM                   5
2  Nc1cccc2c1c(N)nc1ccccc12            µM                  30

IC50 reported for this compound `[N-]=[N+]=Nc1ccc2c(c1)c(N)nc1ccccc12` : 10

---

- Experiment description: Ex vivo antiprion activity against sheep 127S scrapie prion protein infected in mouse MovS6 cells assessed as PK digestion resistant-PrPSc accumulation after 6 days by immunoblot analysis
- Assay type: cell-based
- Measurement context: Ovis aries, MovS6, 144 h
Measured endpoint: pIC50
# pIC50 is unitless: minus log10 of the molar concentration; print number only

Please review the entries below; each comes with its answer.
> print(dat)
                      smiles.structure  experimental.value
1      Nc1nc2ccccc2c2ccc(C(F)(F)F)cc12                5.00
2               Nc1nc2ccccc2c2c1CC=CC2                5.74
3  Nc1nc2ccccc2c2ccc([N+](=O)[O-])cc12                4.70

Now, please, on to the next compound.
pIC50 reported for this compound `Nc1nc2ccccc2c2ccc(F)cc12` : 4.82

---

- Experiment description: Ex vivo antiprion activity against sheep 127S scrapie prion protein infected in mouse MovS6 cells assessed as PK digestion resistant-PrPSc accumulation after 6 days by immunoblot analysis
- Assay type: cell-based
- Measurement context: Ovis aries, MovS6, 144 h
pIC50: −log10 of the molar value.
Measured endpoint: pIC50

Please review the entries below; each comes with its answer.
> print(dat)
                      smiles.structure  experimental.value
1  Nc1nc2ccccc2c2cc([N+](=O)[O-])ccc12              > 5.30
2                Nc1nc2ccccc2c2ccccc12              > 5.30
3             Nc1nc2ccccc2c2cccc(F)c12              < 4.70

pIC50 reported for this molecule `COc1cc(OC)c2nc(N)c3ccccc3c2c1` : > 5.74
